Reference source for all entries: patent US9499553B2

Target: human NaPi-IIb (Homo sapiens, UniProt O95436)
Construct: expressed in transfected cells
Assay: Inhibitory effect on 33PO4 uptake into human NaPi-IIb-expressing CHO cells
Assay type: cell-based
Settings: read-out: IC50
valueKind: pIC50
Scale: pIC50 equals -log10([C]), with [C] in mol/L.

compound	pIC50
CN1N(Cc2ccc(OCCCCCC(=O)O)c(F)c2F)C(=O)C(C(=O)Nc2ccc(C(F)(F)F)cc2-c2cc(C(F)(F)F)ncn2)=C(O)C12CCCC2 [Example 334]	4.99
COc1ncc(-c2cc(C(F)(F)F)ccc2NC(=O)C2=C(O)[C@@]3(C)CCCN3N(Cc3cccc(F)c3F)C2=O)c(OC)n1 [Example 72]	5.08
Cc1nc(NC(=O)C2=C(O)C3(CCCC3)N(C)N(Cc3cccc(F)c3F)C2=O)ccc1Br [Example 262]	5.00

**Query** Which pIC50 value belongs to CN1[C@@H](C(C)(C)C)C(O)=C(C(=O)Nc2ccc(Cl)cc2-c2ccc(C(F)(F)F)nc2)C(=O)N1Cc1ccc(OCCN2CCOCC2)c(F)c1F [Example 267] ?
**Result** 5.12

###

Target: human NaPi-IIb (Homo sapiens, UniProt O95436)
Construct: expressed in transfected cells
Sequence (O95436 1-690): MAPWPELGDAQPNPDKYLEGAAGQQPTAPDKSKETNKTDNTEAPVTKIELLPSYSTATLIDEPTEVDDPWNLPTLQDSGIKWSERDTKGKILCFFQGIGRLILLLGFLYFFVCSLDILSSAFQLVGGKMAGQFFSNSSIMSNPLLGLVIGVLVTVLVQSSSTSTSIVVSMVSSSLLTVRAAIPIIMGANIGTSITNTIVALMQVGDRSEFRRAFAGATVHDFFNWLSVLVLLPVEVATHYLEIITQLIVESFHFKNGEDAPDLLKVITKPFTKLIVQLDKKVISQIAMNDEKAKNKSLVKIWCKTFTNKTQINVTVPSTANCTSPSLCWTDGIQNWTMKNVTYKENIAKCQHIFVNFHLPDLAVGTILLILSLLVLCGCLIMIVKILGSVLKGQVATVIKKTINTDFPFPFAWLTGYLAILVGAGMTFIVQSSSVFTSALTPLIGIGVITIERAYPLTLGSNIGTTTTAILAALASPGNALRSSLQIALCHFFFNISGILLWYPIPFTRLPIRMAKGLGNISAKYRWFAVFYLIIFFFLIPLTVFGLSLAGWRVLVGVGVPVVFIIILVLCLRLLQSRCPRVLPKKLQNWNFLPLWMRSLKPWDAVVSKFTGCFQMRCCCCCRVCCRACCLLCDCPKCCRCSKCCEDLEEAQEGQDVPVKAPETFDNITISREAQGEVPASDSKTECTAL
Assay: Inhibitory effect on 33PO4 uptake into human NaPi-IIb-expressing CHO cells
Type: cell-based
Conditions: read-out: IC50
Here the recorded IC50 is given for each entry.
Expressed in µM, but write only the number.

Some compounds with recorded IC50:
CSc1ncc(-c2cc(C(F)(F)F)ccc2NC(=O)C2=C(O)[C@@]3(C)CCCN3N(Cc3ccc(C#CCCCCC(=O)O)c(F)c3F)C2=O)cn1 9.1
CN1[C@@H](C(C)(C)C)C(O)=C(C(=O)Nc2ccc(Cl)cc2-c2cc(C(F)(F)F)ncn2)C(=O)N1Cc1ccc(OCCN2CCOCC2)c(F)c1F 13.3

**Query** Look up IC50: `C[C@]12CCCN1N(Cc1ccc(OCCN3CCOCC3)c(F)c1F)C(=O)C(C(=O)Nc1ccc(C(F)(F)F)nc1-c1ccc(OC(F)(F)F)cc1)=C2O`
**Result** 8.8

**Query** And what about the compound `CC(C)[C@@H]1C(O)=C(C(=O)Nc2ccc(C(F)(F)F)cc2-c2cc(C(F)(F)F)ncn2)C(=O)N(Cc2cccc(F)c2F)N1C` ?
**Result** 9.8
